# Measured target: human sodium channels Nav 1.7 (Homo sapiens, UniProt Q15858)
# Sequence (Q15858 whole entry): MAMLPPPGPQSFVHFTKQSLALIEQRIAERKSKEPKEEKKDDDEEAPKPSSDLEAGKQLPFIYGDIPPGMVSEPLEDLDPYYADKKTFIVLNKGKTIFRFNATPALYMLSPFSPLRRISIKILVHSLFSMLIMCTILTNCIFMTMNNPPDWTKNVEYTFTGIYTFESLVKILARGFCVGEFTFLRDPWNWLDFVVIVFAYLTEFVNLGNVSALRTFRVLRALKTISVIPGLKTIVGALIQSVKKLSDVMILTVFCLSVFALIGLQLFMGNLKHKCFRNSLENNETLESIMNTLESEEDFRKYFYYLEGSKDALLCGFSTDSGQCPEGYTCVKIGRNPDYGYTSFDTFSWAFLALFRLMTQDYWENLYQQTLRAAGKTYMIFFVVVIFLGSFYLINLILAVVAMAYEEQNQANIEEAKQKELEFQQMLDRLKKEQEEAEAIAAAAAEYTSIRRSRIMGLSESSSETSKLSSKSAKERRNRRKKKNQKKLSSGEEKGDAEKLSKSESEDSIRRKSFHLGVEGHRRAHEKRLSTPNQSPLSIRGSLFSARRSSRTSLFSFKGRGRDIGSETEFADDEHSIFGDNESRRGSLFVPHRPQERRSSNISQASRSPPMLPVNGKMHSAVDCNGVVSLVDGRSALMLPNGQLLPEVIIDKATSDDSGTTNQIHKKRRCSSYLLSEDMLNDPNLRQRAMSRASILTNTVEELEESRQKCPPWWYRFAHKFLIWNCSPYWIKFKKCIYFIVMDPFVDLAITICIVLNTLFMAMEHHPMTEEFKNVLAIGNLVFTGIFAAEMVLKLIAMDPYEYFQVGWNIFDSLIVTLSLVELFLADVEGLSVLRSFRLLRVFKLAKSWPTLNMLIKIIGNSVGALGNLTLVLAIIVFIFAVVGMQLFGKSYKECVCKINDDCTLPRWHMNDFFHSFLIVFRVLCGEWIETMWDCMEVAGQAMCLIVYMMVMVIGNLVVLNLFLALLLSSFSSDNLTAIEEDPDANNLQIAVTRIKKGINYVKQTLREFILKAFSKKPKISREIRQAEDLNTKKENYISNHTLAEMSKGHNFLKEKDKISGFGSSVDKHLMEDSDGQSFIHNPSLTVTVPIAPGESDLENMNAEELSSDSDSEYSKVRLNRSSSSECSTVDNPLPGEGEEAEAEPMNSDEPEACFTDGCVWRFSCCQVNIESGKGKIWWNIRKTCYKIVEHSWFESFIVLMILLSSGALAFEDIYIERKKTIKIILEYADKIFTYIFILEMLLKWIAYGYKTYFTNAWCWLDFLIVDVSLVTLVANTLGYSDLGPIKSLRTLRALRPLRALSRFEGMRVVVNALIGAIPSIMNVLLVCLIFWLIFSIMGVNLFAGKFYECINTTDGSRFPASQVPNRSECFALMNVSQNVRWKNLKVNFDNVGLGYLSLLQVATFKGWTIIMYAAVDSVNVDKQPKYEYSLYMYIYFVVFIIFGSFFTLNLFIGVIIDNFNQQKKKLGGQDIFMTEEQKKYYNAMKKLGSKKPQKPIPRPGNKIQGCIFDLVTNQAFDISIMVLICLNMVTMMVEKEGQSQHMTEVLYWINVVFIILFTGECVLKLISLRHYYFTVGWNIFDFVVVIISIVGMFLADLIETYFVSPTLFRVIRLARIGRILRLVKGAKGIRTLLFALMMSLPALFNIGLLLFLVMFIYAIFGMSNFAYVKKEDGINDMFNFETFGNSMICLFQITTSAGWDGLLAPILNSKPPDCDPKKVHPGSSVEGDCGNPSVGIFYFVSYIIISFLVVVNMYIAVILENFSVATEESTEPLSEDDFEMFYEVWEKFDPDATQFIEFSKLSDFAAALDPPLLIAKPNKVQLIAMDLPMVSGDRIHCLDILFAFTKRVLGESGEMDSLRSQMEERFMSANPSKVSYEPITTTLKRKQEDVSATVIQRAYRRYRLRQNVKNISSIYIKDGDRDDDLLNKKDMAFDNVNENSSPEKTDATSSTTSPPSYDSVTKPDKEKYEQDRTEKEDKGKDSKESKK
# Test method notes: Automated whole-cell voltage-clamp (ScreenPatch 384P) sodium current block, Nav 1.7
# Protocol conditions: CHO cells stably expressing human Nav 1.7; inactivation step -40 mV 8 s, test step 0 mV (TP1A); eight concentrations; exposure at least five minutes; room temperature; read-out: Nav1.7 IC50
pIC50: −log10 of the molar value.
Value kind: pIC50

Form: molecule = CCOc1ccc(-c2cncc(C(=O)N/N=C/c3cc(C(C)O)cnc3F)n2)cn1 (centres unmarked) ; pIC50 = < 6.00

Form: molecule = CCOc1ccc(-c2cccc(C(=O)N/N=C/c3cc(OC)cnc3F)n2)cn1 ; pIC50 = 6.00 to 6.30

Form: molecule = CCOc1ccc(-c2cncc(C(=O)N/N=C/c3cc(OC4CCC4)ccc3F)n2)cn1 ; pIC50 = 6.00 to 6.30

Form: molecule = CCOc1ccc(-c2cncc(C(=O)N/N=C/c3[nH]ccc3C#N)n2)cn1 ; pIC50 = < 6.00

Form: molecule = O=C(N/N=C/c1cc(O)cnc1F)c1cncc(-c2ccc(OC(F)F)nc2)n1 ; pIC50 = < 6.00

Form: molecule = COc1ccc(F)c(/C=N/NC(=O)c2cncc(-c3ccc(OCC(C)N)nc3)n2)c1 (centres unmarked) ; pIC50 = < 6.00

Form: molecule = CCOc1ccc(-c2cncc(C(=O)N/N=C/c3cc(C(=O)O)ccc3F)n2)cn1 ; pIC50 = < 6.00

Form: molecule = COc1cnc(F)c(/C=N/NC(=O)c2cccc(-c3ccc(OC(F)F)nc3)n2)c1 ; pIC50 = > 6.30

----------
# Measured target: human sodium channels Nav 1.8 (Homo sapiens, UniProt Q9Y5Y9)
# Sequence (Q9Y5Y9 whole entry): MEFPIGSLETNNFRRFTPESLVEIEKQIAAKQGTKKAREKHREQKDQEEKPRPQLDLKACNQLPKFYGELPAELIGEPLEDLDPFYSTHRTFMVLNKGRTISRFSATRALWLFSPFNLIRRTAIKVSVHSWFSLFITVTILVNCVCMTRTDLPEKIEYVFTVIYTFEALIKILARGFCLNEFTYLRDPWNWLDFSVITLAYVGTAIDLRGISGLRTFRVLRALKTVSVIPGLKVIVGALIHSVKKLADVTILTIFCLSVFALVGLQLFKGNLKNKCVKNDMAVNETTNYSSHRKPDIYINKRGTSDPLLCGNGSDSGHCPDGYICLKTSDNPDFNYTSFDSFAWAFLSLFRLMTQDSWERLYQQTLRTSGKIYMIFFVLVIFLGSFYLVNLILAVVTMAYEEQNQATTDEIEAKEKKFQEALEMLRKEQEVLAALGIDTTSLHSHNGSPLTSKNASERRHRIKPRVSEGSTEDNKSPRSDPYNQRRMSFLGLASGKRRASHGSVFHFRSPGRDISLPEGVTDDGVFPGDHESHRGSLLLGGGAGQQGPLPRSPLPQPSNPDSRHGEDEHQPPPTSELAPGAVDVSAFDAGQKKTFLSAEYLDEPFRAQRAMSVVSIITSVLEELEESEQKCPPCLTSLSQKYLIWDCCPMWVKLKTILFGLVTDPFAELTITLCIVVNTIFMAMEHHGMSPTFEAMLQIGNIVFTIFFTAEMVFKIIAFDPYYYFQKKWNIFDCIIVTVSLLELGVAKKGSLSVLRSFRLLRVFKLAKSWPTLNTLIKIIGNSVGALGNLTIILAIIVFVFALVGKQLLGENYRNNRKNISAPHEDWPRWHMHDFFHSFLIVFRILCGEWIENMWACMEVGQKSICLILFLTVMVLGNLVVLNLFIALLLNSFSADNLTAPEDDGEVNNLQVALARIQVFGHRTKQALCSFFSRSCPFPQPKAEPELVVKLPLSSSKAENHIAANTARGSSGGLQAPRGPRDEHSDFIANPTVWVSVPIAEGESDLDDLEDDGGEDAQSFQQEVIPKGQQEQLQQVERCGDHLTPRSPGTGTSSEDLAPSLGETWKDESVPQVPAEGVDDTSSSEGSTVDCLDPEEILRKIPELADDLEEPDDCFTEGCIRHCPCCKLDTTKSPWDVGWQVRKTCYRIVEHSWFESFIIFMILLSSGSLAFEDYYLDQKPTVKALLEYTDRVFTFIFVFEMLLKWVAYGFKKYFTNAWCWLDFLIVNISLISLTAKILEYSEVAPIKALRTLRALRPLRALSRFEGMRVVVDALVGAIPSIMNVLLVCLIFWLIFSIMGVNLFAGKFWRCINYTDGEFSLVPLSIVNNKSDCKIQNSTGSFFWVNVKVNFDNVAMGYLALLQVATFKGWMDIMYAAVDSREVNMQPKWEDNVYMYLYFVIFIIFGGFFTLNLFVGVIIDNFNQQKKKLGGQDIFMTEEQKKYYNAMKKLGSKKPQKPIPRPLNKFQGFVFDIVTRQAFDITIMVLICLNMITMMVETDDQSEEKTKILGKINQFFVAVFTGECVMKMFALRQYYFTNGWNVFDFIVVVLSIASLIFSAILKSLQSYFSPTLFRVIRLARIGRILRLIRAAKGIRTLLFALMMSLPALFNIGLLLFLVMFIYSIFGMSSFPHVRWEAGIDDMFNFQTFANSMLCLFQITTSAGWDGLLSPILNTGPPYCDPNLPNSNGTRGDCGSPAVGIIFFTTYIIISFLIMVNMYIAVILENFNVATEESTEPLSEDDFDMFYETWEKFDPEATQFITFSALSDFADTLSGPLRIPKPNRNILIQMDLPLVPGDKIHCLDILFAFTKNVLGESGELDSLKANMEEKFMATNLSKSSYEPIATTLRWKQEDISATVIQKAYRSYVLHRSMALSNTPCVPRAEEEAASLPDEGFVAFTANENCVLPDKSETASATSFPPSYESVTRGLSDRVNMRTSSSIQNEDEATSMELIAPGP
# Test method notes: Automated whole-cell voltage-clamp (ScreenPatch 384P) sodium current block, Nav 1.8
# Protocol conditions: CHO cells stably expressing human Nav 1.8; inactivation step -40 mV 8 s, test step 10 mV (TP1A); eight concentrations; exposure at least five minutes; room temperature; read-out: Nav1.8 IC50
Would you kindly list IC50 for each of these molecules?

The molecule CCOc1ccc(-c2cnc(O)c(C(=O)N/N=C/c3cc(OC)ccc3F)n2)cn1 on human sodium channels Nav 1.8 (Homo sapiens, UniProt Q9Y5Y9): IC50 was > 1 µM

The molecule [2H]C([2H])([2H])COc1ccc(-c2cncc(C(=O)N/N=C/c3cc(OC([2H])([2H])[2H])cnc3F)n2)cn1 on human sodium channels Nav 1.8 (Homo sapiens, UniProt Q9Y5Y9): IC50 was < 0.5 µM

The molecule COc1ccc(F)c(/C=N/NC(=O)c2nc(-c3ccc(OC(F)(F)F)nc3)cnc2O)c1 on human sodium channels Nav 1.8 (Homo sapiens, UniProt Q9Y5Y9): IC50 was > 1 µM

The molecule CC(C)Oc1ccc(F)c(/C=N/NC(=O)c2cncc(-c3ccc(OC(F)(F)F)nc3)n2)c1 on human sodium channels Nav 1.8 (Homo sapiens, UniProt Q9Y5Y9): IC50 was < 0.5 µM

The molecule COc1cnc(C)c(/C=N/NC(=O)c2cncc(-c3ccc(OC(F)F)nc3)n2)c1 on human sodium channels Nav 1.8 (Homo sapiens, UniProt Q9Y5Y9): IC50 was < 0.5 µM

The molecule COc1cnc(F)c(/C=N/NC(=O)c2cccc(-c3ccc(OC(F)F)nc3)n2)c1 on human sodium channels Nav 1.8 (Homo sapiens, UniProt Q9Y5Y9): IC50 was < 0.5 µM

The molecule COc1ccc(C)c(/C=N/NC(=O)c2cncc(-c3ccc(OC(F)F)nc3)n2)c1 on human sodium channels Nav 1.8 (Homo sapiens, UniProt Q9Y5Y9): IC50 was < 0.5 µM

The molecule CCOc1ccc(-c2cncc(C(=O)N/N=C/c3cc(OC)ccc3O)n2)cn1 on human sodium channels Nav 1.8 (Homo sapiens, UniProt Q9Y5Y9): IC50 was 0.5 to 1 µM

The molecule COc1cc(/C=N/NC(=O)c2cncc(-c3ccc(OC(F)F)nc3)n2)cc(O)n1 on human sodium channels Nav 1.8 (Homo sapiens, UniProt Q9Y5Y9): IC50 was > 1 µM

The molecule COc1ccc(F)c(/C=N/NC(=O)c2cncc(-c3ccc(OCCC4CN(C)C4)nc3)n2)c1 on human sodium channels Nav 1.8 (Homo sapiens, UniProt Q9Y5Y9): IC50 was > 1 µM

The molecule COc1cnc(F)c(/C=N/NC(=O)c2cncc(-c3ccc(OC(F)F)nc3C)n2)c1 on human sodium channels Nav 1.8 (Homo sapiens, UniProt Q9Y5Y9): IC50 was < 0.5 µM

The molecule COc1cnc(F)c(/C=N/N(C)C(=O)c2cncc(-c3ccc(OC(F)F)nc3)n2)c1 on human sodium channels Nav 1.8 (Homo sapiens, UniProt Q9Y5Y9): IC50 was > 1 µM

The molecule CCOc1ccc(-c2cncc(C(=O)N/N=C/c3cccc(O)n3)n2)cn1 on human sodium channels Nav 1.8 (Homo sapiens, UniProt Q9Y5Y9): IC50 was > 1 µM

The molecule O=C(N/N=C/c1ccccc1F)c1cncc(-c2ccc(OC(F)(F)F)nc2)n1 on human sodium channels Nav 1.8 (Homo sapiens, UniProt Q9Y5Y9): IC50 was < 0.5 µM

The molecule COc1cc(/C=N/NC(=O)c2cncc(-c3ccc(OC4CC4)nc3)n2)ccc1F on human sodium channels Nav 1.8 (Homo sapiens, UniProt Q9Y5Y9): IC50 was < 0.5 µM

The molecule [2H]C([2H])([2H])COc1ccc(-c2cncc(C(=O)N/N=C/c3cc(OC)cnc3F)n2)cn1 on human sodium channels Nav 1.8 (Homo sapiens, UniProt Q9Y5Y9): IC50 was < 0.5 µM

----------
# Measured target: human sodium channels Nav 1.7 (Homo sapiens, UniProt Q15858)
# Test method notes: Automated whole-cell voltage-clamp (ScreenPatch 384P) sodium current block, Nav 1.7
# Protocol conditions: CHO cells stably expressing human Nav 1.7; inactivation step -40 mV 8 s, test step 0 mV (TP1A); eight concentrations; exposure at least five minutes; room temperature; read-out: Nav1.7 IC50
Value kind: IC50

Form: compound = CCOc1ccc(-c2cncc(C(=O)N/N=C/c3cncn3C)n2)cn1 ; IC50 = > 1000 nM

Form: compound = CCOc1ccc(-c2cncc(C(=O)N/N=C/c3ccnn3C(C)C)n2)cn1 ; IC50 = > 1000 nM

Form: compound = CCOc1ccc(-c2cncc(C(=O)N/N=C/c3cc(OC4CCC4)cnc3F)n2)cn1 ; IC50 = > 1000 nM

Form: compound = COc1ccc(F)c(/C=N/NC(=O)c2cncc(-c3ccc(OC(F)(F)F)nc3)n2)c1 ; IC50 = > 1000 nM

----------
# Measured target: human sodium channels Nav 1.8 (Homo sapiens, UniProt Q9Y5Y9)
# Test method notes: Automated whole-cell voltage-clamp (ScreenPatch 384P) sodium current block, Nav 1.8
# Protocol conditions: CHO cells stably expressing human Nav 1.8; inactivation step -40 mV 8 s, test step 10 mV (TP1A); eight concentrations; exposure at least five minutes; room temperature; read-out: Nav1.8 IC50
Value kind: IC50

The compound [2H]C([2H])([2H])Oc1cnc(F)c(/C=N/NC(=O)c2cncc(-c3ccc(OC([2H])([2H])C([2H])([2H])[2H])nc3)n2)c1 [Compound 174] on human sodium channels Nav 1.8 (Homo sapiens, UniProt Q9Y5Y9): IC50 was < 500 nM

The compound COc1ccnc(/C=N/NC(=O)c2cncc(-c3ccc(OC(F)(F)F)nc3)n2)c1 [Compound 85] on human sodium channels Nav 1.8 (Homo sapiens, UniProt Q9Y5Y9): IC50 was < 500 nM

The compound CCOc1ccc(-c2cncc(C(=O)N/N=C/c3cc(O)cnc3F)n2)cn1 [Compound 28] on human sodium channels Nav 1.8 (Homo sapiens, UniProt Q9Y5Y9): IC50 was 500 to 1000 nM

The compound CCOc1ccc(-c2cncc(C(=O)N/N=C/c3cc(OC4CN(C)C4)ccc3F)n2)cn1 [Compound 39] on human sodium channels Nav 1.8 (Homo sapiens, UniProt Q9Y5Y9): IC50 was > 1000 nM

The compound CCOc1ccc(-c2cnc(O)c(C(=O)N/N=C/c3cc(OC)cnc3F)n2)cn1 [Compound 65] on human sodium channels Nav 1.8 (Homo sapiens, UniProt Q9Y5Y9): IC50 was > 1000 nM

The compound CCOc1ccc(-c2cncc(C(=O)N/N=C/c3ncoc3C)n2)cn1 [Compound 62] on human sodium channels Nav 1.8 (Homo sapiens, UniProt Q9Y5Y9): IC50 was 500 to 1000 nM

The compound CCOc1ccc(-c2cncc(C(=O)N/N=C/c3cc(OC)cnc3O)n2)cn1 [Compound 42] on human sodium channels Nav 1.8 (Homo sapiens, UniProt Q9Y5Y9): IC50 was > 1000 nM

The compound O=C(N/N=C/c1ccncc1)c1cncc(-c2ccc(OC(F)(F)F)nc2)n1 [Compound 87] on human sodium channels Nav 1.8 (Homo sapiens, UniProt Q9Y5Y9): IC50 was > 1000 nM
